Cited source: PubChem BioAssay (NCATS)

Parameter max response: see the listing below.
# Tested on: HEK293
# Assay Remarks: Cytotoxic Profiling of Annotated Libraries Using Quantitative High-Throughput Screening (AID 1296008); also: % is scaled to controls: 0 for no effect and ±100 for the full control effect; nearly all actives have a fitted effect of over 60% in size
# Assay Context: Five cell lines viability, CellTiter-Glo ATP luminescence, 48-72 h; hits give low values
Results filed as inconclusive are left out.
# number only, unit % dropped from output

Record excerpt, results attached:
NS(=O)(=O)c1cc2c(cc1C(F)(F)F)NCNS2(=O)=O | -7.43
O=C1c2ccccc2S(=O)(=O)N1CCCCN1CCN(c2ncccn2)CC1 | -4.06
N[C@@H](Cc1ccc(O)cc1)C(=O)O | 3.89
CC(=O)N[C@@H](Cc1ccc(O)cc1)C(=O)O | -2.21

Which max response reading was recorded for the compound C=CCN1C[C@H](C(=O)N(CCCN(C)C)C(=O)NCC)C[C@@H]2c3cccc4[nH]cc(c34)C[C@H]21 ?
1.65

Return reported max response; argument: CC1(c2ccccc2)OC(C(=O)O)=CC1=O (centres undefined)
1.9

###

# Assay Remarks: qHTS assay for small molecule activators of the p53 signaling pathway (AID 651743); also: % of control where 0% means no effect
# Assay Context: HCT-116 p53RE-bla, beta-lactamase FRET ratio, 16 h; hits give high values
Results filed as inconclusive are left out. Calls of active or inactive are those of the source. Calls follow the shape of the dose curve; as a rule, active = well fitted activation curve with a large enough effect in the signal ratio (not every such curve was filed as active); inconclusive = small, poorly fitted or top-dose-only effect, or a change in a side signal; inactive = flat fitted curve, though single readings scatter; the % refers to the signal ratio.
Measurement Type: activation

Answered examples (6):
CCCCOC(=O)c1ccc(N)cc1 | -1.05% (inactive)
O=C1c2cccc(O)c2C(=O)c2c(O)cccc21 | 3.77% (inactive)
Cc1cc(=O)[nH]c(=S)[nH]1 | -1.35% (inactive)
CC(=O)Nc1cccc(O)c1 | -0.0293% (inactive)
O=C1C(c2[nH]c3ccccc3c2O)=Nc2ccccc21 | -4.39% (inactive)
CC[N+](CC)(CC(=O)Nc1c(C)cccc1C)Cc1ccccc1 | -6.37% (inactive)

Record request: activation value, item FC(F)(F)C(Cl)Br (configuration not stated)
-1.4% (inactive)

###

# Assay Remarks: qHTS Assay for Identifying Gametocytocidal Compounds (AID 743244);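 also: % is scaled to controls: 0 for no effect and ±100 for the full control effect; actives lower the fluorescent signal which means gametocytes are killed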
# Assay Context: P. falciparum 3D7 stage III-V gametocytes, alamarBlue, 72 h; hits give low values
Inconclusive results are not listed.
Measurement Type: max response (%)
Give a bare numeral; the unit % is implied.

CCCCC1(COC(=O)CCC(=O)O)C(=O)N(c2ccccc2)N(c2ccccc2)C1=O | 1.1
COC(=O)c1ccc(O)cc1 | -9.3
FC(F)(F)C(Cl)Br (stereo not drawn) | -11.3
O=C(/C=C/c1ccccc1)OCc1ccccc1 | 18.6
NCC1CCC(C(=O)Oc2ccc(CCC(=O)O)cc2)CC1 (stereo not drawn) | 9.03
CC(=O)N(CC(O)CO)c1c(I)c(C(=O)NCC(O)CO)c(I)c(C(=O)NCC(O)CO)c1I (stereo not drawn) | -11.4
Cc1cccc(C)c1NC(=O)CC12CCCN1CCC2 | 0.37
CCCOC(=O)c1ccc(N)cc1 | -6.49

Record request: max response value, item CCN(CC)CCc1nc(-c2ccccc2)no1
1.91

For NC(N)=NCCN1CCCCCCC1 , what is its reported max response?
21

May I ask what max response has been recorded for N[C@@H](Cc1ccc(O)cc1)C(=O)O ?
0.124

Value lookup for max response; key = CN/C(=C\[N+](=O)[O-])NCCSCc1csc(CN(C)C)n1
18.9

Name the recorded max response for CC(=O)Nc1ccc(C(=O)O)cc1 .
7.86

Returns the measured max response for the input compound. Input: C[C@@H]1O[C@@H](OC[C@H]2O[C@@H](Oc3c(-c4ccc(O)c(O)c4)oc4cc(O)cc(O)c4c3=O)[C@H](O)[C@@H](O)[C@@H]2O)[C@H](O)[C@H](O)[C@H]1O
3.71

###

Here the recorded activity change % (negative = inhibition) is given for each entry.
# Assayed System: Thyroid hormone receptor beta (Homo sapiens) (UniProt P10828)
# Sequence (P10828 whole entry, looked up): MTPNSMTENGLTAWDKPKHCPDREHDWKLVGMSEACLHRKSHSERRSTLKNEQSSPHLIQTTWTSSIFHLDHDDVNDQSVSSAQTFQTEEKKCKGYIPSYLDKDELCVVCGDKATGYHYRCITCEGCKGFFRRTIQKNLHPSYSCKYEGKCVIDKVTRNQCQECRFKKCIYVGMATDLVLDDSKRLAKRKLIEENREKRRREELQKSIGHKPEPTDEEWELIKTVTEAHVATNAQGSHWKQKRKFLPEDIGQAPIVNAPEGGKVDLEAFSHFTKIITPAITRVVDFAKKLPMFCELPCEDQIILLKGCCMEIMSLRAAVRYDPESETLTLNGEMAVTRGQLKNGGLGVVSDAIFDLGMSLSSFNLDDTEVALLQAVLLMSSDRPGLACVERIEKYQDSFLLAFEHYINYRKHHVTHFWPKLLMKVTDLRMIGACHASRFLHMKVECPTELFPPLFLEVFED
# Assay Remarks: qHTS assay for small molecule antagonists of thyroid hormone receptor beta signaling (AID 588547);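 also: cells stimulated with 0.4 nM T3 agonist during compound exposure; % is scaled to controls: 0 for no effect and ±100 for the full control effect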
# Assay Context: TR-UAS-bla HEK293, beta-lactamase ratio, antagonist mode, 18 h
Inconclusive results are not listed.
The answer is to be given in %; state only the numeric part.

Consider the worked cases shown below.
CCCCCCCCCCCCCCCCCCO | 3.9
C=CCNC(N)=S | -17.1
CCCCCC(N)=O | -10.5
CCCCCCCC(=O)OCC(COC(=O)CCCCCCC)OC(=O)CCCCCCC | -4.42

Attention now shifts to the item below.
# activity change % (negative = inhibition) lookup, item Cc1cc(=O)[nH]c(=S)[nH]1
15.5

###

# Assay Remarks: qHTS of pediatric cancer cell lines to identify multiple opportunities for drug repurposing: Primary screen for NB-EBc1 cells (AID 1347095);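 also: plate controls were DMSO neutral control for no effect and bortezomib for full effect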
# Assay Context: NB-EBc1 neuroblastoma viability, CellTiter-Glo luminescence, 48 h; series mostly up to 46 µM
Records with an inconclusive call do not appear. Activity calls are given as the source filed them. The call rests on the fitted dose curve; in most records, active means well fitted cell-killing curve with a large enough effect; inconclusive means small, poorly fitted or top-dose-only effect; inactive means no such curve, though single readings can be large or run the other way.
Measurement Type: activity change, negative = cytotoxic

CN1CC(=O)NC1=N | inactive
C/C(=C(\CCO)SS/C(CCO)=C(\C)N(C=O)Cc1cnc(C)nc1N)N(C=O)Cc1cnc(C)nc1N | inactive
CCCC(O)C(CC)CO (centres undefined) | inactive
Nc1ccc(S(=O)(=O)c2ccc(N)cc2)cc1 | inactive

Requested field: activity change, negative = cytotoxic. Item: CC(C)CCOC(=O)c1ccc(N(C)C)cc1
inactive

Value lookup for activity change, negative = cytotoxic; key = CC(C)(C)NCC(O)COc1cccc2c1CCC(=O)N2 (centres undefined)
inactive

Quick one: activity change, negative = cytotoxic of OCCN1C[C@H](O)[C@@H](O)[C@H](O)[C@H]1CO ?
inactive

If you can, please state the reported activity change, negative = cytotoxic value of CC[C@]12CCCN3CCc4c(n(c5ccccc45)[C@@](O)(C(=O)OC)C1)[C@@H]32 .
inactive

Fill blank: measured activity change, negative = cytotoxic of the molecule Nc1ccncc1N is ____.
inactive

Can you look up the measured activity change, negative = cytotoxic of CC(=O)Nc1cccc(O)c1 for me?
inactive

Given CC(=O)NS(=O)(=O)c1ccc(N)cc1 , state its recorded activity change, negative = cytotoxic.
inactive

Item under review: OC(CCN1CCCC1)(c1ccccc1)C1CCCCC1 (centres undefined) . Reported activity change, negative = cytotoxic?
inactive

Reported activity change, negative = cytotoxic for Cc1c(NC(=O)c2cccnc2)c(=O)n(-c2ccccc2)n1C : what is it?
inactive

Name the recorded activity change, negative = cytotoxic for CCOC(=O)OC(C)OC(=O)[C@@H]1N2C(=O)[C@@H](NC(=O)[C@H](N)c3ccccc3)[C@H]2SC1(C)C (some centres undefined) .
inactive

Quick one: activity change, negative = cytotoxic for Cc1cccc(Nc2ccccc2C(=O)O)c1C ?
inactive

activity change, negative = cytotoxic for COC(=O)c1ccc(O)cc1 ?
inactive

###

Reported max response values for the following molecules.
# System: CRL-7250
# Assay Remarks: Cytotoxic Profiling of Annotated Libraries Using Quantitative High-Throughput Screening (AID 1296008); also: % is scaled to controls: 0 for no effect and ±100 for the full control effect; nearly all actives have a fitted effect of over 60% in size
# Assay Context: Five cell lines viability, CellTiter-Glo ATP luminescence, 48-72 h; hits give low values
Inconclusive results are not listed.
Return type: number; implicit unit %.

These recorded examples may help you get a feel for the data.
C[C@@H]1CCC[C@H](C)N1 | 0.393
O=C(O)c1ccccc1C(=O)Nc1ccc(S(=O)(=O)Nc2nccs2)cc1 | -2.05
Cc1c(NC(=O)c2cccnc2)c(=O)n(-c2ccccc2)n1C | -9.05
O=C(O)/C=C/c1ccc(Cn2ccnc2)cc1 | -1.04
O=C(/C=C/c1ccccc1)OCc1ccccc1 | 1.75
OC(CCN1CCCC1)(c1ccccc1)C1CCCCC1 (configuration not stated) | -24
N[C@@H](Cc1ccc(O)cc1)C(=O)O | 1.09
CC(=O)Nc1cccc(O)c1 | -4.66
COCC(=O)Nc1c(I)c(C(=O)NCC(O)CO)c(I)c(C(=O)N(C)CC(O)CO)c1I (configuration not stated) | -2.09
NC(=O)c1ccc([N+](=O)[O-])cc1Cl | 3.21

Endpoint output: max response of CN1CCCN=C1COC(=O)C(O)(c1ccccc1)C1CCCCC1 (configuration not stated) . Value?
-8.2

Form field: reported max response of COc1ccc(NS(=O)(=O)c2ccc(N)cc2)nn1
3.69

###

# Tested on: PC49
# Assay Remarks: qHTS profiling for inhibitors of Plasmodium falciparum proliferation (AID 504749);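 also: 0% = DMSO vehicle and full inhibition = artemisinin control; nearly all actives have a fitted effect of over 60% in size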
# Assay Context: P. falciparum in erythrocytes, SYBR Green DNA, 72 h; series mostly up to 28.7 µM
Results filed as inconclusive are left out. The source made the active and inactive calls. Calls follow the shape of the dose curve; as a rule, active = well fitted inhibition curve with a large enough effect; inconclusive = small, poorly fitted or top-dose-only effect; inactive = flat fitted curve, though single readings scatter.
Please reply with one of these outcomes: active, inactive

Can you look up the reported call for CCCCCCCCCCCCCCCCN for me?
inactive

Tell me the recorded outcome of this test for CC(C)c1cc2c(cc1S(=O)(=O)O)[C@@]1(C)CCC[C@@](C)(C(=O)O)[C@@H]1CC2 .
inactive

###

# Tested on: CP192
# Assay Remarks: qHTS profiling for inhibitors of Plasmodium falciparum proliferation (AID 504749);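 also: 0% = DMSO vehicle and full inhibition = artemisinin control; nearly all actives have a fitted effect of over 60% in size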
# Assay Context: P. falciparum in erythrocytes, SYBR Green DNA, 72 h; series mostly up to 28.7 µM
Records with an inconclusive call do not appear. Active and inactive are the calls of the source. The call rests on the fitted dose curve; in most records, active means well fitted inhibition curve with a large enough effect; inconclusive means small, poorly fitted or top-dose-only effect; inactive means flat fitted curve, though single readings scatter.
Measurement Type: outcome

Illustrative cases are given below, each with its answer.
NC(=O)CC[C@@H](N)C(=O)O | inactive
C[N+](C)(C)CC[N+]1(C)Cc2c(Cl)c(Cl)c(Cl)c(Cl)c2C1 | inactive
Cc1c(N(C)C)c(=O)n(-c2ccccc2)n1C | inactive
O=C(Cn1ccnc1[N+](=O)[O-])NCc1ccccc1 | inactive
Cn1c(=O)c2c(ncn2CCO)n(C)c1=O | inactive

Please report the recorded outcome for Cc1c(I)c(=O)n(-c2ccccc2)n1C .
inactive

May I ask what outcome has been recorded for CCS(=O)(=O)CCn1c([N+](=O)[O-])cnc1C ?
inactive

Quick one: outcome for NS(=O)(=O)c1cc2c(cc1C(F)(F)F)NCNS2(=O)=O ?
inactive

Entry under review: CCCCCCCC(=O)OCC(COC(=O)CCCCCCC)OC(=O)CCCCCCC . Reported outcome?
inactive
